Each recorded value in this set is attributed to the RNAGym collection of RNA variant scans (doi:10.1093/nar/gkz1192).

B1: CPEB3 Ribozyme (parent)
chain: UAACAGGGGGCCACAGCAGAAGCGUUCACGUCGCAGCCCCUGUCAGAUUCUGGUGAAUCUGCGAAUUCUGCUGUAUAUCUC

# Variants of: B1
# PROTOCOL NOTES: self-cleavage, relative activity (ratio to wild type); higher = more cleavage; in vitro, sequencing
Rule: self-cleavage of 0.3 or more gives label 1; anything lower gives label 0.

// inclusive: self-cleavage at least 0.3? input: U48C A75C
label 1

Hello, I need to know if C17U U51G has measured self-cleavage not below 0.3. Thanks!
label 1

Exam item: decide whether the reported self-cleavage for G70A U74A is at least 0.3.
label 1

Has G33A A77G a recorded self-cleavage greater than or equal to 0.3?
label 0

Evaluate G7U : self-cleavage at minimum 0.3?
label 0

I'd appreciate it if you could say whether G7U C34U has self-cleavage at least equal to 0.3.
label 0

Check this variant for self-cleavage at or above 0.3: U43A U49C
label 1

Given the entry A18U G19U , answer whether its self-cleavage meets or surpasses 0.3.
label 0

Is reported self-cleavage greater than or equal to 0.3 here: U51C U67C
label 1

Is it the case that C17A A75U has self-cleavage reaching or exceeding 0.3?
label 0

State whether the measured self-cleavage reaches 0.3, counting equality as reaching it, for U26C A28G
label 1

Is self-cleavage at least 0.3? Consider A45G U72C
label 1

Reported self-cleavage reaches at least 0.3 for A28U U74C ?
label 1

Reported self-cleavage at or above 0.3? U25G U80C
label 1

Is it the case that A5G C40U has self-cleavage reaching or exceeding 0.3?
label 0

Identify whether the reported self-cleavage of the following variant is 0.3 or greater: A57G U76G
label 1

API: above_or_equal(metric=self-cleavage, cutoff=0.3) for item U26G C27U
label 1

# check: self-cleavage of G22C U74G is greater than or equal to 0.3
label 0

Item A3C U72A with self-cleavage of 0.3 or above?
label 1

Please indicate if the recorded self-cleavage for A21G C38G meets or exceeds 0.3.
label 0

# bool: self-cleavage of A15U G70A >= 0.3
label 1
